# credit: paper PMC8042727

Reported IC90 values for a set of compounds
Tested on: Trypanosoma cruzi epimastigotes (Y strain)
Assay: In vitro evaluation on T. cruzi epimastigotes (AlamarBlue, 72 h)
Type: cell-based
Conditions: nonlinear regression of AlamarBlue curve, read-out: IC90 Trypanosoma cruzi: epimastigote
property_name: IC90 (µM)

>>> print(df.to_string())
                                   compound                               test_target  units_label  endpoint_value
0  C=C(C)[C@H]1CC[C@]2(C)C[C@@H]3O[C@@]3(C)CC/C=C(\C)CC[C@@H]12 [Compound 3, 3,4-epoxy-7,18-dolabelladiene]  Trypanosoma cruzi epimastigotes (Y strain)           µM             140
1  CC(C)=CCC[C@](C)(O)[C@@H]1CC[C@@H](C)[C@@H]2CC=C(C)[C@H]2[C@@H]1O  Trypanosoma cruzi epimastigotes (Y strain)           µM            75.4
2  C=C1CC[C@@H]([C@@](C)(O)CCC=C(C)C)[C@@H](O)[C@@H]2C(C)=CC[C@@H]12  Trypanosoma cruzi epimastigotes (Y strain)           µM             104
3  O=C(Cn1ccnc1[N+](=O)[O-])NCc1ccccc1 [Benznidazole, reference compound]  Trypanosoma cruzi epimastigotes (Y strain)           µM            25.6
